Origin of the recorded values: patent US10221175B2

- tested-target: mAChR M1 (UniProt P11229)
- Sequence (P11229 1-460): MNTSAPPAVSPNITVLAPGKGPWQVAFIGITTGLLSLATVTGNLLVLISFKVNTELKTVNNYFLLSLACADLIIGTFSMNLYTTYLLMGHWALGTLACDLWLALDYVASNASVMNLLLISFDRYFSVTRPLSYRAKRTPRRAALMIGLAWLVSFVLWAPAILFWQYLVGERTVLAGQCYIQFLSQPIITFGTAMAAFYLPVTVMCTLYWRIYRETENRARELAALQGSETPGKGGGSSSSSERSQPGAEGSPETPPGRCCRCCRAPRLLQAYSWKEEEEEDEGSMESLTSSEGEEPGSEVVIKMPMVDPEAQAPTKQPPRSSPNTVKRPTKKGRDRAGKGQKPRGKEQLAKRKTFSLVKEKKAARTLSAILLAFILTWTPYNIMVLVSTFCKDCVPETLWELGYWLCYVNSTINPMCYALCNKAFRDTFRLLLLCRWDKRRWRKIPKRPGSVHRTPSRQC
- procedure-summary: mAChR M1 cell-based functional assay (calcium mobilization, potentiation of EC20 acetylcholine response)
- condition-label: maximal response as % of ACh maximum, CHO-K1 cells expressing M1
Quick rule: M1 AChmax (%) of at least 80% means 1, below that means -1.

Take a look at these entries with their results.
O=C1c2c(ccc3nccn23)CN1Cc1ccc(-n2ccnn2)nc1 :: -1
Cn1cc2c(-c3ccc(F)c(CN4Cc5ccc6nncn6c5C4=O)c3)cccc2n1 :: -1
Cn1cc(-c2ccc(F)c(CN3Cc4ccc5nncn5c4C3=O)c2)cn1 :: -1

Problem: Would you say O=C1c2c(ccc3nncn23)CN1Cc1ccc(-c2ccc3ncccc3c2)cc1F shows M1 AChmax (%) at minimum 80%?
Solution: 1

Problem: Would you say Cn1cc(-c2ccc(CN3Cc4ccc5nccn5c4C3=O)c(F)c2)cn1 shows M1 AChmax (%) at minimum 80%?
Solution: -1

----------
- tested-target: mAChR M1 (UniProt P11229)
- procedure-summary: mAChR M1 cell-based functional assay (calcium mobilization, potentiation of EC20 acetylcholine response)
- condition-label: positive allosteric modulator activity, concentration-dependent increase in EC20 acetylcholine response, CHO-K1 cells; >10 μM estimated where no plateau but >20% increase in ACh response
Assignment: determine reported EC50 for the given compounds.
One number for each entry, in nM.

Past entries and their recorded results:
Cn1cc2c(-c3ccc(F)c(CN4Cc5ccc6nncn6c5C4=O)c3)cccc2n1 :: 1350
O=C1c2c(ccc3nncn23)CN1Cc1c(F)cc(-c2ccc3ncccc3c2)cc1F :: 743
Cn1cc2cc(-c3ccc(CN4Cc5ccc6nccn6c5C4=O)c(F)c3)ccc2n1 :: 3900
Cn1cc(-c2cc(F)c(CN3Cc4ccc5ncnn5c4C3=O)c(F)c2)cn1 :: 1630
Cc1nnc2ccc3c(n12)C(=O)N(Cc1c(F)cc(-c2ccc4nn(C)cc4c2)cc1F)C3 :: 1240

Problem: Tell me the measured EC50 of Cc1nnc2ccc3c(n12)C(=O)N(Cc1ccc(-c2ccc4nn(C)cc4c2)cc1F)C3 , please.
Solution: 1210

----------
- tested-target: UniProt:P11229
- procedure-summary: mAChR M1 cell-based functional assay (calcium mobilization, potentiation of EC20 acetylcholine response)
- condition-label: maximal response as % of ACh maximum, CHO-K1 cells expressing M1
Quick rule: M1 AChmax (%) of at least 40% means 1, below that means -1.

Take a look at these entries with their results.
O=C1c2c(ccc3nncn23)CN1Cc1c(F)cc(-c2ccc3ncccc3c2)cc1F :: 1
CNC(=O)c1ccc(CN2Cc3ccc4nccn4c3C2=O)cc1 :: -1
Cc1cc(-c2ccc(CN3Cc4ccc5nnc(C)n5c4C3=O)c(F)c2)cc2cn(C)nc12 :: 1
Cn1cc2c(-c3ccc(CN4Cc5ccc6nccn6c5C4=O)c(F)c3)cccc2n1 :: 1

Problem: Would you say Cn1cc(-c2ccc(CN3Cc4ccc5ncnn5c4C3=O)c(F)c2)cn1 shows M1 AChmax (%) at minimum 40%?
Solution: 1

Problem: Would you say Cn1cc2cc(-c3ccc(F)c(CN4Cc5ccc6nncn6c5C4=O)c3)ccc2n1 shows M1 AChmax (%) at minimum 40%?
Solution: -1

Problem: Would you say O=C1c2c(ccc3nccn23)CN1Cc1ccc(-n2nccn2)cc1 shows M1 AChmax (%) at minimum 40%?
Solution: -1

Problem: Would you say Cn1cc2cc(-c3cc(F)c(CN4Cc5ccc6nccn6c5C4=O)c(F)c3)ccc2n1 shows M1 AChmax (%) at minimum 40%?
Solution: 1

----------
- tested-target: mAChR M1 (UniProt P11229)
- procedure-summary: mAChR M1 cell-based functional assay (calcium mobilization, potentiation of EC20 acetylcholine response)
- condition-label: positive allosteric modulator activity, concentration-dependent increase in EC20 acetylcholine response, CHO-K1 cells; >10 μM estimated where no plateau but >20% increase in ACh response
observed-property: EC50

Past entries and their recorded results:
Cc1cn2c3c(ccc2n1)CN(Cc1c(F)cc(-c2cnn(C)c2)cc1F)C3=O :: > 30 µM
COc1ccc(-c2ccc(F)c(CN3Cc4ccc5nncn5c4C3=O)c2)cn1 :: > 30 µM
Cc1ccc(-c2ccc(CN3Cc4ccc5nnc(C)n5c4C3=O)c(F)c2)c2cn(C)nc12 :: 2.14 µM

Problem: Tell me the measured EC50 of Cc1nnc2ccc3c(n12)C(=O)N(Cc1c(F)cc(-c2cccc4nn(C)cc24)cc1F)C3 , please.
Solution: 1.41 µM

----------
Assignment: determine reported M1 AChmax (%) for the given molecules.
- tested-target: mAChR M1 (UniProt P11229)
- Sequence (P11229 1-460): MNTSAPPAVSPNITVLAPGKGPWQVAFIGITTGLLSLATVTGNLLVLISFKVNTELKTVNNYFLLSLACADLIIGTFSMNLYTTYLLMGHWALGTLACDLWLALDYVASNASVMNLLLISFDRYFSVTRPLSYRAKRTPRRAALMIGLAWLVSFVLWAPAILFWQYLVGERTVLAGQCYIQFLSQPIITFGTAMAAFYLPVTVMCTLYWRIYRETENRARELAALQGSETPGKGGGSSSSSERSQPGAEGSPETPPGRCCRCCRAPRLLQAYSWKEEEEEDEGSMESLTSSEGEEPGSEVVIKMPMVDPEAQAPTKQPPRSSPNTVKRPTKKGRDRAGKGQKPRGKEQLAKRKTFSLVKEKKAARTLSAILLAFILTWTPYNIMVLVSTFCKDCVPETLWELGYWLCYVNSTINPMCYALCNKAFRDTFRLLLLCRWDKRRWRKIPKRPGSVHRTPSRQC
- procedure-summary: mAChR M1 cell-based functional assay (calcium mobilization, potentiation of EC20 acetylcholine response)
- condition-label: maximal response as % of ACh maximum, CHO-K1 cells expressing M1
Phrase the answer as number then unit, nothing more needed.

Past entries and their recorded results:
Cc1ccc(-c2ccc(CN3Cc4ccc5nnc(C)n5c4C3=O)c(F)c2)c2cn(C)nc12 :: 82%
Cc1ccc(-c2ccc(CN3Cc4ccc5nncn5c4C3=O)c(F)c2)c2cn(C)nc12 :: 82%

Continue with the next molecule.
Problem: Tell me the measured M1 AChmax (%) of Cc1cc(-c2ccc(CN3Cc4ccc5nncn5c4C3=O)c(F)c2)cc2cn(C)nc12 , please.
Solution: 81%
